These entries and their values trace back to patent US11643424B2.

Would you kindly list inhibition in vivo at 2 mg/kg for each of these compounds?
- Test system: Moxifloxacin-induced QTc prolongation
- measurement notes: Cardiac response testing: protection against Moxifloxacin-induced QTc prolongation (ECG telemetry)
- Assay type: in vivo, adult male Hartley guinea pigs
- test context: Cavia porcellus, po, 4 h; read-out: Protection at 4 h post dose
Express it in %; write the number only.

Value of inhibition in vivo at 2 mg/kg reported for the compound CCCCCCCCCCCCCCCC1OCC(COP(=O)([O-])OC[C@@H](COC(=O)CCCCCCCCCCCCC)OC(=O)CCCCCCCCCCCCC)O1.[Na+] (some centres unmarked) [Compound 5, Phosphate] is 126

Value of inhibition in vivo at 2 mg/kg reported for the compound CCCCCCCCCCCCCC(=O)OC[C@H](COP(=O)([O-])OCC(COC(=O)CCC)OC(=O)CCC)OC(=O)CCCCCCCCCCCCC.[Na+] (some centres unmarked) [Compound 7, Phosphate] is 119

Value of inhibition in vivo at 2 mg/kg reported for the compound CCCCCCCCCCCCCC(=O)OC[C@H](COP(=O)([O-])OCC(COC(=O)CC(C)C)OC(=O)CC(C)C)OC(=O)CCCCCCCCCCCCC.[Na+] (some centres unmarked) [Compound 8, Phosphate] is 100

Value of inhibition in vivo at 2 mg/kg reported for the compound CCCCCCCCCCCCCC(=O)OC[C@H](COP(=O)([O-])OCC(COC(C)=O)OC(C)=O)OC(=O)CCCCCCCCCCCCC.[Na+] (some centres unmarked) [Compound 1, Phosphate] is 100

Value of inhibition in vivo at 2 mg/kg reported for the compound CCCCCCCCCCCCCCCCCC1OCC(COP(=O)([O-])OC[C@@H](COC(=O)CCCCCCCCCCCCC)OC(=O)CCCCCCCCCCCCC)O1.[Na+] (some centres unmarked) [Compound 4, Phosphate] is 22

Value of inhibition in vivo at 2 mg/kg reported for the compound CCCCCCCCCCCCCC(=O)OC[C@H](COP(=O)([O-])OCC1COC(CCCCC)O1)OC(=O)CCCCCCCCCCCCC.[Na+] (some centres unmarked) [Compound 6, Phosphate] is 115

Value of inhibition in vivo at 2 mg/kg reported for the compound CCCCCCCCCCCCCC(=O)OC[C@H](COP(=O)([O-])OCC(COC(=O)OCC)OC(=O)OCC)OC(=O)CCCCCCCCCCCCC.[Na+] (some centres unmarked) [Compound 2, Phosphate] is 22

Value of inhibition in vivo at 2 mg/kg reported for the compound CCCCCCCCCCCCCC(=O)OC[C@H](COP(=O)([O-])OCC(COC(=O)C(C)C)OC(=O)C(C)C)OC(=O)CCCCCCCCCCCCC.[Na+] (some centres unmarked) [Compound 9, Phosphate] is 100
